# MEASURED_TARGET: adenylate cyclase
# RUN_DESCRIPTION: Stimulation of adenylate cyclase activity in rat reticulocyte membranes
# CONDITION_NOTES: rat reticulocyte membranes; mean ±SE, n = 3-6; read-out: EC50 (concentration that produced half-maximal enzyme activation), adenylate cyclase
pEC50: −log10 of the molar value.
Measured pEC50 values are reported for all entries that follow.
ASSAY_ENDPOINT: pEC50

1. CC(C)(Cc1ccc(NC(=O)CBr)cc1)NCC(O)c1ccc(O)c2nc(O)ccc12 (stereo not drawn): 8.07
2. CC(C)(Cc1ccc(I)cc1)NCC(O)c1ccc(O)c2[nH]c(=O)ccc12 (stereo not drawn): 8.25
3. CC(C)(Cc1ccc(N)cc1)NCC(O)c1ccc(O)c2[nH]c(=O)ccc12 (stereo not drawn): 7.85

---

# MEASURED_TARGET: beta-adrenergic receptor (Rattus norvegicus, UniProt P10608)
# Sequence (P10608 whole entry): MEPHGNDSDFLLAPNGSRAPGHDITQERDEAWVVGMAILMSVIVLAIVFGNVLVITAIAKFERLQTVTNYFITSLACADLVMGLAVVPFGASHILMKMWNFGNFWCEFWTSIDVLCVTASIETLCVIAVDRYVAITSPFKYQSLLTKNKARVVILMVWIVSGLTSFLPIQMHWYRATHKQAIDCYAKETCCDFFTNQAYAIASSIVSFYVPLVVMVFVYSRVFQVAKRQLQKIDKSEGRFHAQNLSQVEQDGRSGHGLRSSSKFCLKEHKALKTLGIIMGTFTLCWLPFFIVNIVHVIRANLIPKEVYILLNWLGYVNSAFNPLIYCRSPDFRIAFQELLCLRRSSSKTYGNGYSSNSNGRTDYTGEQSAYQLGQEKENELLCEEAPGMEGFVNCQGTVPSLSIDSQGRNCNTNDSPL
# RUN_DESCRIPTION: [^125 I]iodocyanopindolol (CYP) competition binding to the beta-adrenergic receptor in rat reticulocyte membranes
ASSAY_ENDPOINT: IC50 (nM)

1. CC(C)(Cc1ccc(NC(=O)CBr)cc1)NCC(O)c1ccc(O)c2nc(O)ccc12 (stereo not drawn): 5.3
2. CC(C)(Cc1ccc(N)cc1)NCC(O)c1ccc(O)c2[nH]c(=O)ccc12 (stereo not drawn): 22
3. CC(C)(Cc1ccc(I)cc1)NCC(O)c1ccc(O)c2[nH]c(=O)ccc12 (stereo not drawn): 7.6

---

# MEASURED_TARGET: beta-adrenergic receptor (Rattus norvegicus, UniProt P10608)
# RUN_DESCRIPTION: Washout experiment: irreversible binding after membrane pretreatment with compound 13
# CONDITION_NOTES: compound 13 treated membranes (20 nM); control 13±3; read-out: KD value for (-)-[^125 I]iodocyanopindolol binding to the remaining receptors
ASSAY_ENDPOINT: Kd (nM)

1) CC(C)(Cc1ccc(NC(=O)CBr)cc1)NCC(O)c1ccc(O)c2nc(O)ccc12 (stereo not shown) [Compound 13]: 0.011
